tested on: human apolipoprotein B mRNA; assay: Inhibition of human apolipoprotein B mRNA levels in HepG2 cells, quantitative real-time PCR; format: cell-based; conditions: HepG2 cells; 10 nM; 24 hour (Table 41)
In the oligonucleotide strings, read from the 5' end, every base follows the letter of its sugar. An asterisk marks phosphorothioate; unmarked linkages are phosphodiester. Other units and linkages are bracketed, terminal groups are in braces. A string of capitals states the bases alone. e = 2'-O-(2-methoxyethyl) (MOE); [5mC] = 5-methylcytosine; d = 2'-deoxy (DNA)
PROPERTY NAME: % Change in apolipoprotein B mRNA expression (%)
Field: numeric (%). Do not append units.

Here's what some known entries look like.
331022 (antisense GCCTCAGTCTGCTTCGCAC; sugars from the 5' end e5 d10 e4, all phosphorothioate, methylation of C not given here) [compound 331022] :: −33
301012 (eG*e[5mC]*e[5mC]*eT*e[5mC]*dA*dG*dT*d[5mC]*dT*dG*d[5mC]*dT*dT*d[5mC]*eG*e[5mC]*eA*e[5mC]*e[5mC]) [compound 301012] :: −51

Inquiry: Need % Change in apolipoprotein B mRNA expression, item 332778 (antisense GCCTCAGTCTGCTTC; sugars from the 5' end e5 d10, linkages s4 o1 s9 (s phosphorothioate, o phosphodiester), methylation of C not given here) [compound 332778]
Reply text: −11

Inquiry: Subsequent entry: 332780 (antisense CCTCAGTCTGCTTCGCAC; sugars from the 5' end e4 d10 e4, all phosphorothioate, methylation of C not given here) [compound 332780]
Reply text: −3
